B1: TAP–Bag-1S [human] / Calnexin [human (endogenous in MCF-7 and MCF-12A)] (parent)
chain 1: MNRSQEVTRDEESTRSEEVTREEMAAAGLTVTVTHSNEKHDLHVTSQQGSSEPVVQDLAQVVEEVIGVPQSFQKLIFKGKSLKEMETPLSALGIQDGCRVMLIGKKNSPQEEVELKKLKHLEKSVEKIADQLEELNKELTGIQQGFLPKDLQAEALCKLDRRVKATIEQFMKILEEIDTLILPENFKDSRLKRKGLVKKVQAFLAECDTVEQNICQETERLQSTNFALAE
chain 2: HDGHDDDVIDIEDDLDDVIEEVEDSKPDTTAPPSSPKVTYKAPVPTGEVYFADSFDRGTLSGWILSKAKKDDTDDEIAKYDGKWEVEEMKESKLPGDKGLVLMSRAKHHAISAKLNKPFLFDTKPLIVQYEVNFQNGIECGGAYVKLLSKTPELNLDQFHDKTPYTIMFGPDKCGEDYKLHFIFRHKNPKTGIYEEKHAKRPDADLKTYFTDKKTHLYTLILNPDNSFEILVDQSVVNSGNLLNDMTPPVNPSREIEDPEDRKPEDWDERPKIPDPEAVKPDDWDEDAPAKIPDEEATKPEGWLDDEPEYVPDPDAEKPEDWDEDMDGEWEAPQIANPRCESAPGCGVWQRPVIDNPNYKGKWKPPMIDNPSYQGIWKPRKIPNPDFFEDLEPFRMTPFSAIGLELWSMTSDIFFDNFIICADRRIVDDWANDGWGLKKAADGAAEPGVVGQMIEAAEERPWLWVVYILTVALPVFLVILFCCSGKKQTSGMEYKKTDAPQPDVKEEEEEKEEEKDKGDEEEEGEEKLEEKQKSDAEEDGGTVSQEEEDRKPKAEEDEILNRSPRNRKPRRE

Variants of: B1
Experiment: TAP pull-down interactome analysis (LC-MS/MS)
Conditions: with Calnexin [human (endogenous in MCF-7 and MCF-12A)]; MCF-7 cells; read off a plot
READOUT: screen value (log2)
Numbers only here, please. The scale is log2.

Use the examples below as a reference point.
- VARIANT KEY: "chain 1 R162E"
  READING: -1.1
- VARIANT KEY: "chain 1 R161D"
  READING: -1.6
- VARIANT KEY: "chain 1 I103K"
  READING: -1.1

Now, please, on to the next variant.
Ask: Returns the measured screen value for the input variant. Input: chain 1 R193D
Result: -0.55
